Kindly supply the reported inhibition values for the records listed here.
Target: Tyrosine-protein kinase Fer (Homo sapiens) (UniProt P16591);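 further: reported figures are averaged percent inhibition of FER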
Sequence (P16591 whole entry, looked up): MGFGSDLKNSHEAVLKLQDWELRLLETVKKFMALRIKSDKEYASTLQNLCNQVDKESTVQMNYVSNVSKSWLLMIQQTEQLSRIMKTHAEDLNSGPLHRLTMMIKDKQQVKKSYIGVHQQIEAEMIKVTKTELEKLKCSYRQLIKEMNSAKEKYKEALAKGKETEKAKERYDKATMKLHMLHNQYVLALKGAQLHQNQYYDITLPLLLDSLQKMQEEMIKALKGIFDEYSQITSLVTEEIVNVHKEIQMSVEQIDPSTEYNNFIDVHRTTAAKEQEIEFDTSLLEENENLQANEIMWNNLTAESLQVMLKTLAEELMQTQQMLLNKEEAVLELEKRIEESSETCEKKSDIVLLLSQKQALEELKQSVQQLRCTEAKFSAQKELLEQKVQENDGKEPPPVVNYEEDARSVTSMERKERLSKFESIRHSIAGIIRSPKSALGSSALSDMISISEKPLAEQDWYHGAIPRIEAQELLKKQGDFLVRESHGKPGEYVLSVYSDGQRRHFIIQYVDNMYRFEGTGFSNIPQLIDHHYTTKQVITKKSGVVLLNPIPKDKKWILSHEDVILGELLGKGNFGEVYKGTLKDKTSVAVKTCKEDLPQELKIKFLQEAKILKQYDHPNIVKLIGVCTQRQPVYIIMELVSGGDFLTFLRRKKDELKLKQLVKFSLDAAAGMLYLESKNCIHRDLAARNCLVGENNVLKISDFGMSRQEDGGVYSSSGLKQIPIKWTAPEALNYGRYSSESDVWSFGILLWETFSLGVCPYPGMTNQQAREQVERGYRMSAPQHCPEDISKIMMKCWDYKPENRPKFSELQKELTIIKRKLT
Details: at 0.1 µM
One number for each entry, in %.

[
  {
    "chemical smiles": "CCn1c(-c2nonc2N)nc2c(N3CCCC3)nccc21",
    "inhibition, %": 2.26
  }
]

Quick request: inhibition for each listed item, please.
1. COc1cc2ncn(-c3cc(OCc4ccccc4Cl)c(C(N)=O)s3)c2cc1OC
2. [O-][S+]1CCN(Cc2ccc(-c3ccc4ncnc(Nc5ccc(OCc6ccccc6)c(F)c5)c4c3)o2)CC1

1: 2.47; 2: 3.77

List the reported inhibition of each compound below.
1. COc1cc2ncn(-c3cc(O[C@@H](C)c4ccccc4Cl)c(C(N)=O)s3)c2cc1OC
2. CNC(=O)c1cncc(/C=C/c2c(Cl)cccc2Cl)c1

[6.4, 0.6]

* * *

Assign inhibition to each entry below.
Target: Discoidin domain-containing receptor 2 (Homo sapiens) (UniProt Q16832);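 further: reported values are mean percent inhibition of DDR2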
Sequence (Q16832 whole entry, the tested form may be a part): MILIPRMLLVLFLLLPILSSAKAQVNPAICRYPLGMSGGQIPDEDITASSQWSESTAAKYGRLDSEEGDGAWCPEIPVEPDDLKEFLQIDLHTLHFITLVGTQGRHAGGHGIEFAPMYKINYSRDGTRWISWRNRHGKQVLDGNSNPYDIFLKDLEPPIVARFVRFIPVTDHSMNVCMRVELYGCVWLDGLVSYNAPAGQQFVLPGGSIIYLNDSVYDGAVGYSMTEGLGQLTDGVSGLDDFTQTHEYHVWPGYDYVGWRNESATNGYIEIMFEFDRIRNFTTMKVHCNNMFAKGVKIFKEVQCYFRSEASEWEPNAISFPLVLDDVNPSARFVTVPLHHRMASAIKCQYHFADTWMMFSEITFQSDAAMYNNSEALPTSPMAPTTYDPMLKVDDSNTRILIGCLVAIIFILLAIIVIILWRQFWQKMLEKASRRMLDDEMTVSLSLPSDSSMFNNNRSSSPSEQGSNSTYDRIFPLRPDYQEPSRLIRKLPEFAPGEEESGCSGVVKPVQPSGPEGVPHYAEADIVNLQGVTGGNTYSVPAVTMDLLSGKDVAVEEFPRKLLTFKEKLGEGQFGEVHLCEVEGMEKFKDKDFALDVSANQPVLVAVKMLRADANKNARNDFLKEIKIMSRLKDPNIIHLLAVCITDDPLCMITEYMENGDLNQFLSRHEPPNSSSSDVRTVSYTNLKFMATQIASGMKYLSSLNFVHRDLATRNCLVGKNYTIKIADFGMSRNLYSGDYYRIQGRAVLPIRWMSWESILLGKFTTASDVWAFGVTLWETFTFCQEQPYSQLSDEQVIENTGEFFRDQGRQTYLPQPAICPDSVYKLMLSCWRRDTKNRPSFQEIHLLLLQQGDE
Conditions: at 0.1 µM
Give bare numbers, in %.

[
  {
    "molecule": "Fc1cccc(COc2ccc(Nc3ncnc4cc(-c5ccc[nH]5)sc34)cc2Cl)c1",
    "inhibition, %": 0.15
  },
  {
    "molecule": "CC(C)=Cc1cccc2c1/C(=N/Nc1ccc(S(N)(=O)=O)cc1)C(=O)N2",
    "inhibition, %": 0.85
  },
  {
    "molecule": "Cc1ccc(C(=O)NC2CCCCC2)cc1-c1ccc(C(=O)NCC2CC2)cc1",
    "inhibition, %": 3.79
  }
]

// batch mode: one inhibition value per listed entry
1. NS(=O)(=O)c1ccc(N/N=C2\C(=O)Nc3ccc(C(=O)NCCc4c[nH]cn4)cc32)cc1
2. NC(=O)c1cccc(Nc2nccc(Nc3cccc4[nH]ncc34)n2)c1
3. Cc1ccc(NC(=O)c2ccnc(N3CCCC3)c2)cc1-c1ccc(C(=O)NCC2CC2)cc1
4. N#Cc1c(NC(=O)c2cccc3ccccc23)sc2c1CCCC2

[1.41, 19.9, 3.77, 2.55]

Items follow; give inhibition for each.
1. CCN1CCC(CC(=O)Nc2n[nH]c3nc(-c4cccs4)c(Br)cc23)CC1
2. Cc1nn(C)c2cc(N(C)c3ccnc(Nc4cccc(S(N)(=O)=O)c4)n3)ccc12
3. COc1cc2c(cc1Nc1nc(N3CCc4ccccc43)c3cc[nH]c3n1)N(C(=O)CN(C)C)CC2
4. COc1cc2ncn(-c3cc(OCc4ccccc4C(F)(F)F)c(C(N)=O)s3)c2cc1OC
5. CC(=O)Nc1cccc(C#Cc2cncnc2Nc2ccc(OCc3cccc(F)c3)c(Cl)c2)n1
6. CCn1c(-c2nonc2N)nc2ccncc21
7. NC(=O)c1ccc(-c2nc(-c3ccccn3)c(-c3ccc4c(c3)OCO4)[nH]2)cc1
8. CCn1c(-c2nonc2N)nc2c(C#CC(C)(C)O)nc(OC[C@@H](N)c3ccccc3)cc21

[-0.58, -2.88, 0.28, 7.36, 2.33, 0.25, 2.6, 4.51]

Could I get inhibition for every one of these entries?
1. CC1=C(C(=O)Nc2ccc3[nH]ncc3c2)C(c2ccc(Cl)c(Cl)c2)CC(=O)N1 (centres undefined)
2. CC1=C(C(=O)Nc2ccc3[nH]ncc3c2)C(c2ccc3ccccc3c2)CC(=O)N1 (centres undefined)
3. CN1CCC(C(=O)Nc2n[nH]c3nnc(-c4ccccc4)cc23)CC1
4. Nc1nc(-c2ccc3c(c2)C(=Cc2cc(Br)c(O)c(Br)c2)C(=O)N3)cs1

1. 3.12
2. 1.3
3. 0.55
4. 0.46
